# log10(Kd) values compiled below
target: T1, SARS-CoV-2 receptor-binding domain (WT RBD; S protein residues 319-539) (SARS-CoV-2, UniProt P0DTC2 319-539); experiment: BLI (Octet Red), IgG on protein A biosensor, WT RBD in solution, 1:1 fit
T1 construct: also called SARS-COV-2 RBD
Endpoint label: log10(Kd) (log10 of the value in nM)

{"Binder": "C1002 (antibody, V domains shown) VH: EVQLVESGGGLVQPGGSLRLSCAASEFIVSSNYMTWVRQAPGKGLEWVSIMYPGGSTFYADSVKGRFTISRDNSKNTLYLQINRLRAEDTAVYYCARDIAGRLDYWGQGTLVTVSS VL: DIQMTQSPSSLSASVGDRVTITCQASQDINNYLNWYQQKPGKAPKLLIYDASNLETGVPSRFSGSGSGTDFSFTISSLQPEDIATYYCQQYDNLSRLTFGGGTKVEIK", "log10(Kd)": -2.71}
{"Binder": "C1011 (antibody, V domains shown) VH: QVQLVESGGGVVQPGRSLRLSCAVSGFTFSHYAMHWVRQAPGKGLEWVAVISYDGADKYYADSVRGRFTIARDNSKNTLFLQMSSLRPEDTAVYYCAKKGQPYCGGDCHFYYLDYWGQGTLVTVSS VL: DIQMTQSPSSLSASVGDRVTITCQASQDISNHLNWYQQKPGKAPKLLIYDASNLETGVPSRFSGSGSGTDFTFTISSLQAEDIATYYCQQYDNLPPITFGQGTRLEIK", "log10(Kd)": -1.08}
{"Binder": "C840 (antibody, V domains shown) VH: QVQLVESGGGVVQPGRSLRLSCEASGFTFTAYAMHWLRQAPGKGLEWVAVILNDGSNKLYADSVKGRFTVSRDNSKNMLYLQVNSLRVDDTAVYYCARDGSVDTLMVTWFDYWGQGTLVTVSS VL: DIQMTQSPSSLSASVGDRVTITCRASQSVNNYLNWYQQKPGQAPKLLIYAASSLQSGVPLRFSGSGSGTDFALTITSLHTEDFATYYCQQSYNTPPWTFGPGTKVEIK", "log10(Kd)": 0.75}
{"Binder": "C853 (antibody, V domains shown) VH: QVQLQESGPGLVKASQTLSLTCTVSGGSFRSGGYYYNWIRQHPGKGLEWIGYIFYTGVTYYNPSLKSRVSISVDTSKNQLSLNLTSVTAADTAVYYCARGSYSDYNGGWDYWGRGTLVTVS VL: QSALTQPPSASGSPGQSVTISCIGTSSDVGGYNYVSWYQHHPGKAPKLIIYEVSKRPSGVPDRFSGSKSGNTASLTVSGLQADDEADYYCSSYAGSNNWVFGGGTKLTV", "log10(Kd)": 0.77}
{"Binder": "C888 (antibody, V domains shown) VH: EVQLVESGGGLVQPGGSLRLSCAASGFTVSSNYMSWVRQAPGKGLEWVSVIYSGGSAYYADSVKGRFTISRDNSKNTLYLQMNSLRAEDTAVYYCARDLRDQDGYSYGAFDYWGQGTLVTVSS VL: QSALTQPASVSGSPGQSITISCTGTSSDVGGYNYVSWYQQHPGKAPKLMIYDVSNRPSGVSNRFSGSKSGNTASLTISGLQAEDEADYYCSSYTSSSSWVFGGGTKLTVL", "log10(Kd)": 3.14}
{"Binder": "C937 (antibody, V domains shown) VH: EVQLVESGGGLIQPGGSLRLSCAASELTVSSNYMSWVRQAPGKGLEWVSVIYPGGSTFYADSVKGRFTISRDNSKNTLYLQMNSLRAEDTAVYYCARDLGTGLFDYWGQGTLVTVSS VL: DIQLTQSPSFLSASVGDRVTITCRASQGISSYLAWYQQKPGKAPKLLIYAASTLQSGVPSRFSGSGSGTEFTLTISSLQPEDFATYFCQLLNSNPPGTFGPGTKVDIK", "log10(Kd)": 0.48}
{"Binder": "C930 (antibody, V domains shown) VH: EVQLVESGGGLFQPGGSLRLACAASGITVSSNYMSWVRQPPGKGLEWVSVIYAGGSTFYADSVKGRLTISRDNSKNTLYLQINSLRAEDTAVYYCARDLVVWGMDVWGQGTTVTVSS VL: DIQLTQSPSFLSASVGDRVTITCRASQGISSYLAWYQQKPGKAPKLLIYAASTLQSGVPSRFSGSGSGTEFTLTISSLQPEDFATYYCQQLNTYPYTFGQGTKLEIK", "log10(Kd)": -0.49}
